Value source: patent US20220323476A1

protocol-summary: Aqueous solubility (pH 7.4)
condition-summary: aqueous medium at pH 7.4, pH 7.4, aqueous buffer
// solubility lookup, one value per entry

Completed entries (count: 2):
>>> test_value("C#C[C@]1(COC(=O)Cc2ccccc2)O[C@@H](n2cnc3c(N)nc(F)nc32)C[C@@H]1OC(=O)Cc1ccccc1")
"< 2 µg/mL"
>>> test_value("C#C[C@]1(COC(=O)C(CC)CC)O[C@@H](n2cnc3c(N)nc(F)nc32)C[C@@H]1OC(=O)C(CC)CC")
"< 2 µg/mL"

# input for lookup
Query: State its solubility for this compound: C#C[C@]1(COC(=O)CN)O[C@@H](n2cnc3c(N)nc(F)nc32)C[C@@H]1OC(=O)CN
Reply: > 106000 µg/mL
